- Tested on: Hepatitis B virus
- run.description: Antiviral activity against HBV infected in AML12HBV10 cells assessed as reduction viral replication incubated for 48 hrs
- Assay type: functional, organism-based
- assay.setup: AML12HBV10, 48 h
recorded.endpoint: EC50 (µM)

O=C(Nc1ccnc(Cl)c1)N1CCN(C(=O)Nc2ccc(F)c(Cl)c2)c2ccccc21
1.11
O=C(Nc1ccc(F)c(Cl)c1)N1CC(CN2CCC(F)(F)CC2)Nc2ccccc21 (stereo not given)
4.32
O=C(Nc1ccc(F)c(Cl)c1)N1CCN(C(=O)Nc2cc(Cl)c(F)cc2F)c2ccccc21
0.39
O=C(Nc1ccc(F)c(F)c1)N1c2ccccc2NCC1CN1CCC(F)(F)CC1 (stereo not given)
0.39
O=C(NCc1cccc(Cl)c1)N1CCNc2ccccc21
8.07

----------
- Test system: Hepatitis B virus
- run.description: Antiviral activity against HBV infected in HepDES19 cells assessed as reduction viral DNA incubated for 4 days by qPCR analysis
- Format: functional, organism-based
- assay.setup: HepDES19, 96 h
pEC50: −log10 of the molar value.
Let's look at some compounds and their measured pEC50.
recorded.endpoint: pEC50

O=C(Nc1ccc(F)c(C(F)F)c1)N1c2ccccc2NCC1CN1CCC(F)(F)CC1 (centres undefined)
7.40
O=C(Nc1ccc(F)c(Cl)c1)N1CCN(C(=O)Nc2cc(Cl)c(F)cc2F)c2ccccc21
6.02
O=C(Nc1ccc(F)c(Cl)c1)c1cccc2c1OCCO2
5.99
N#Cc1cc(NC(=O)N2c3ccccc3NCC2CN2CCC(F)(F)CC2)ccc1F (centres undefined)
6.82

----------
- run.description: Cytotoxicity against mouse AML12 cells assessed as reduction in cell viability incubated for 48 hrs by MTT assay
- Assay type: toxicity, cell-based
- assay.setup: AML12 cells
Let's look at some molecules and their measured CC50 at 48 h.
recorded.endpoint: CC50 at 48 h

N#Cc1cc(NC(=O)N2c3ccccc3NCC2CN2CCC(F)(F)CC2)ccc1F (stereo not given)
> 50 µM
O=C(Nc1cc(Cl)ccc1F)N1CCNc2ccccc21
> 100 µM
O=C(Nc1ccc(F)c(Cl)c1)N1CC(CN2CCOCC2)N(C(=O)Nc2ccc(F)c(Cl)c2)c2ccccc21 (stereo not given)
> 100 µM
O=C(Nc1ccc(F)c(Cl)c1)N1CCCc2ccccc21
> 100 µM
O=C(Nc1cc(F)c(F)c(F)c1)N1CCN(C(=O)Nc2ccc(F)c(Cl)c2)c2ccccc21
> 20 µM
O=C(Nc1ccc(F)c(Cl)c1)N1CC(CN2CCC(F)(F)C2)N(C(=O)Nc2ccc(F)c(Cl)c2)c2ccccc21 (stereo not given)
> 100 µM
O=C(Nc1ccc(F)c(C(F)F)c1)N1CCNc2ccccc21
> 20 µM
O=C(Nc1cc(F)c(F)c(Cl)c1)N1CCNc2ccccc21
> 100 µM
O=C(Nc1ccc(F)c(Cl)c1)N1CC2(CCCC2)Nc2ccccc21
> 100 µM
O=C(Nc1ccc(F)c(Cl)c1)N1CCCCc2ccccc21
> 100 µM

----------
- run.description: Cytotoxicity against mouse AML12 cells assessed as reduction in cell viability incubated for 48 hrs by MTT assay
- Format: toxicity, cell-based
- assay.setup: AML12 cells
recorded.endpoint: CC50 at 48 h

O=C(Cc1ccc(F)c(Cl)c1)N1CCNc2ccccc21
> 20 µM
O=C(Nc1ccnc(Cl)c1)N1CCN(C(=O)Nc2ccc(F)c(Cl)c2)c2ccccc21
> 20 µM
O=C(Nc1ccc(F)c(Cl)c1)N1c2ccccc2NCC1CN1CCC(F)(F)CC1 (stereo not given)
> 50 µM
O=C(Nc1ccc(F)c(Cl)c1)N1CCNc2cc(F)c(F)cc21
> 100 µM
O=C(NCc1ccccc1)N1CCN(C(=O)Nc2ccc(F)c(Cl)c2)c2ccccc21
> 20 µM
